Where do the numbers come from? From ChEMBL document CHEMBL5137086.

Would you kindly list inhibition for each of these compounds?
target: UniProt P48775; assay: Inhibition of TDO (unknown origin) assessed as reduction in N-formylkynurenine formation using L-tryptophan as substrate at 50 uM incubated for 75 mins by UV absorbance based analysis relative to control
Sequence (P48775 whole entry, looked up): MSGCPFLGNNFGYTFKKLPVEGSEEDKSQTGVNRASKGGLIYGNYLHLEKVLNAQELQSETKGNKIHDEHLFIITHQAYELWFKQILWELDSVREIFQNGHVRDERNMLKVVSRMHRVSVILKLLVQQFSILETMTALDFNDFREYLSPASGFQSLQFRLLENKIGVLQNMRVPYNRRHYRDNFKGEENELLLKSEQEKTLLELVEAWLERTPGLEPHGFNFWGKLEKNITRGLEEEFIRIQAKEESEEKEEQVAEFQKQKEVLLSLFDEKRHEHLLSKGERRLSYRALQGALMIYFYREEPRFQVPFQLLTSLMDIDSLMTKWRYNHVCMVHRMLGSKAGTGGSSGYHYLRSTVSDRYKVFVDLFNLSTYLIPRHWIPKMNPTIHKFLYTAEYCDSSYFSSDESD
Answer with the value and then the unit.

Ask: Please list inhibition recorded for the compound c1csc(-c2nccc3c2[nH]c2ccccc23)c1
Reply: 82%

Ask: Indicate the recorded inhibition value for this compound: FC(F)(F)c1ccc(-c2nccc3c2[nH]c2ccccc23)cc1
Reply: 5%

Ask: Supply recorded inhibition for c1ccc2c(c1)[nH]c1c(-c3ccoc3)nccc12 here.
Reply: 92%

Ask: Fill in reported inhibition for this entry: Fc1ccc(-c2nccc3c2[nH]c2ccccc23)cc1
Reply: 3%

Ask: Look up inhibition of c1ccc2c(c1)[nH]c1c(-c3ccncc3)nccc12 and report it.
Reply: 36%

Ask: Identify inhibition associated with the compound Brc1ccc(-c2nccc3c2[nH]c2ccccc23)cc1
Reply: 5%

Ask: Identify measured inhibition corresponding to N#Cc1ccc(-c2nccc3c2[nH]c2ccccc23)cc1
Reply: 75%

Ask: Input c1ccc2c(c1)[nH]c1c(-c3cscn3)nccc12 , output reported inhibition.
Reply: 4%

Ask: Please supply the value of reported inhibition for the item c1ccc2c(c1)[nH]c1c(-c3ccsc3)nccc12
Reply: 94%

Ask: In one line, give reported inhibition of the entry Cc1nccc2c1[nH]c1ccccc12 [HARMAN] .
Reply: 85%

Ask: Supply measured inhibition of Clc1cccc(-c2nccc3c2[nH]c2ccccc23)c1 in your reply.
Reply: 88%

Ask: Supply recorded inhibition for c1ccc2c(c1)[nH]c1cnccc12 [NORHARMANE] here.
Reply: 86%

Ask: Indicate the recorded inhibition value for this compound: c1ccc2c(c1)[nH]c1c(-c3cnn[nH]3)nccc12
Reply: 77%

Ask: Complete the entry with inhibition for Clc1ccc(-c2nccc3c2[nH]c2ccccc23)cc1
Reply: 81%

Ask: Hello, please tell me recorded inhibition for this one: O=[N+]([O-])c1ccc(-c2nccc3c2[nH]c2ccccc23)cc1
Reply: 3%

Ask: Give a short answer stating reported inhibition for c1cncc(-c2nccc3c2[nH]c2ccccc23)c1 .
Reply: 89%

Ask: Identify inhibition associated with the compound c1coc(-c2nccc3c2[nH]c2ccccc23)c1
Reply: 37%

Ask: Given the compound c1ccc2c(c1)[nH]c1c(-c3nccs3)nccc12 , write its reported inhibition.
Reply: 2%

Ask: For the compound c1ccc(-c2nccc3c2[nH]c2ccccc23)cc1 , give its measured inhibition value.
Reply: 86%

Ask: Please give the documented inhibition of Brc1cccc(-c2nccc3c2[nH]c2ccccc23)c1
Reply: 65%

Ask: Input O=[N+]([O-])c1cccc(-c2nccc3c2[nH]c2ccccc23)c1 , output reported inhibition.
Reply: 6%

Ask: Consider the compound c1ccc2c(c1)[nH]c1c(-c3cc[nH]n3)nccc12 . State its measured inhibition.
Reply: 7%

Ask: Recall and state the measured inhibition for Fc1cccc(-c2nccc3c2[nH]c2ccccc23)c1 .
Reply: 86%

Ask: Specify reported inhibition for the compound shown: Fc1cc(-c2nccc3c2[nH]c2ccccc23)ccc1Br
Reply: 4%

Ask: In one line, give reported inhibition of the entry Clc1cc(Cl)cc(-c2nccc3c2[nH]c2ccccc23)c1 .
Reply: 8%

Ask: For the compound c1ccc2c(c1)[nH]c1c(-c3ncc[nH]3)nccc12 , give its measured inhibition value.
Reply: 4%

Ask: Read off the recorded inhibition for FC(F)(F)c1cccc(-c2nccc3c2[nH]c2ccccc23)c1
Reply: 88%

Ask: Item Oc1ccc(-c2nccc3c2[nH]c2ccccc23)cc1 : provide inhibition
Reply: 4%

Ask: Consider the compound c1ccc2c(c1)[nH]c1c(-c3c[nH]cn3)nccc12 and give its recorded inhibition.
Reply: 92%

Ask: Annotate the compound N#Cc1cccc(-c2nccc3c2[nH]c2ccccc23)c1 with its measured inhibition.
Reply: 78%
